# Test system: NOMO1
# assay.method.text: AUC of viability dose-response curve (% viability x log10 dose units); higher = less sensitive
# assay.conditions: HPLM + 10% dialyzed FBS; 48 h
Listing of recorded AUC of viability dose-response curve by entry.
measurement.label: AUC of viability dose-response curve

molecule="C=C1C(=O)OC2/C=C(/C)CC/C=C(/C)CCC12 (stereo not given)" observed_measurement=444
molecule="CCOC1=CC=CC=C1N\\2C(=O)C3=C(C=CC=C3)\\N=C2C(C)N4CCN(CC4)C(=O)COC5=CC=C(Cl)C=C5 (stereo not given)" observed_measurement=304
molecule=O=C(O)CC/C=C\CC[C@@H]1[C@@H](N2CCCCC2)[C@@H](O)C[C@@H]1OCc1ccc(-c2ccccc2)cc1 observed_measurement=433
molecule=CON(C)C(=O)N1/N=C(S[C@@]1(CCCN)C2=CC=CC=C2)/C3=CC(=CC=C3F)F observed_measurement=242
molecule=N#Cc1ccc(C(c2ccc(C#N)cc2)n2cncn2)cc1 observed_measurement=442

====

# Tested on: SEM cells
# assay.method.text: cell viability relative to DMSO control; higher = less cytotoxic
# assay.conditions: RPMI 5 mM glucose + 10% FBS; 48 h; 46.1 µM
cell viability vs 90%: less than gives fulfilled; not less than gives not fulfilled.

molecule="CCN1CCCC1CNC(=O)c1cc([S+](N)(=O)[O-])ccc1OC (centres undefined)" qualitative_label="not fulfilled"
molecule=CC(C)C[C@H](NC(=O)[C@@H](O)[C@H](N)Cc1ccccc1)C(=O)O qualitative_label=fulfilled
molecule=OCCC#Cc1nc(-c2ccc(F)cc2)c(-c2ccncc2)n1CCCc1ccccc1 qualitative_label=fulfilled
molecule=CC(C)(O)c1cc2nc(-c3cnc(N)nc3)nc(N3CCOCC3)c2s1 qualitative_label=fulfilled
molecule=C=CCc1ccc(O)c(-c2ccc(O)c(CC=C)c2)c1 qualitative_label=fulfilled
molecule=COc1cccc2c1[C@]13CCN(CC4CC4)[C@H](C2)[C@]1(OC)CCC(=O)C3 qualitative_label="not fulfilled"
molecule=C[C@H]1COC/2=C1/C(=O)C(=O)C3=C4CCCC(C)(C)C4=CC=C23 qualitative_label=fulfilled
molecule="CN(C)C1=C(Br)C=C(C=C1)C\\2NC3=C(\\C4=C2C(=O)CC(C)(C)C4)C5=CC=CC=C5C=C3 (centres undefined)" qualitative_label="not fulfilled"

====

# Test system: SEM cells
# assay.method.text: cell viability relative to DMSO control; higher = less cytotoxic
# assay.conditions: RPMI 5 mM glucose + 10% dialyzed FBS; 48 h; 1.71 µM
Here, each record is paired with measured cell viability data.
measurement.label: cell viability (%)

smiles_entry=O=C(/C=C/c1ccc(O)cc1)c1ccc(O)cc1O measurement_label="cell viability" observed_measurement=91
smiles_entry=COc1ccc2cc1Oc1ccc(cc1)C[C@H]1c3cc(c(OC)cc3CCN1C)Oc1c(OC)c(OC)cc3c1[C@H](C2)N(C)CC3 measurement_label="cell viability" observed_measurement=95.6
smiles_entry=CC/1=C(\O)C(=O)\C=C2/C1=C/C=C3\[C@@]2(C)CC[C@@]4(C)[C@@H]5C[C@@](C)(CC[C@]5(C)CC[C@]34C)C(O)=O measurement_label="cell viability" observed_measurement=61.1
smiles_entry=CC(C)(O)c1cc2nc(-c3cnc(N)nc3)nc(N3CCOCC3)c2s1 measurement_label="cell viability" observed_measurement=52.3
smiles_entry=COC1=CC=C(C=C1O)C/2=C/C(=O)C3=C(O2)C=C(O[C@@H]4O[C@H](CO[C@@H]5O[C@@H](C)[C@H](O)[C@@H](O)[C@H]5O)[C@@H](O)[C@H](O)[C@H]4O)C=C3O measurement_label="cell viability" observed_measurement=114
smiles_entry=N#C/C(C(=O)c1ccc(Cl)cc1Cl)=C1/NC(=O)c2ccc(Cl)cc2N1 measurement_label="cell viability" observed_measurement=137
smiles_entry=Cc1nc(Nc2n[nH]c3c2CN(C(=O)N[C@H](CN(C)C)c2ccccc2)C3(C)C)c2sccc2n1 measurement_label="cell viability" observed_measurement=30.4
smiles_entry=Cc1c[nH]c(-c2cnc(NCCNc3ccc(C#N)cn3)nc2-c2ccc(Cl)cc2Cl)n1 measurement_label="cell viability" observed_measurement=84
